# assayedSystem: hERG (KCNH2) (Homo sapiens, UniProt Q12809)
# Sequence (Q12809 whole entry): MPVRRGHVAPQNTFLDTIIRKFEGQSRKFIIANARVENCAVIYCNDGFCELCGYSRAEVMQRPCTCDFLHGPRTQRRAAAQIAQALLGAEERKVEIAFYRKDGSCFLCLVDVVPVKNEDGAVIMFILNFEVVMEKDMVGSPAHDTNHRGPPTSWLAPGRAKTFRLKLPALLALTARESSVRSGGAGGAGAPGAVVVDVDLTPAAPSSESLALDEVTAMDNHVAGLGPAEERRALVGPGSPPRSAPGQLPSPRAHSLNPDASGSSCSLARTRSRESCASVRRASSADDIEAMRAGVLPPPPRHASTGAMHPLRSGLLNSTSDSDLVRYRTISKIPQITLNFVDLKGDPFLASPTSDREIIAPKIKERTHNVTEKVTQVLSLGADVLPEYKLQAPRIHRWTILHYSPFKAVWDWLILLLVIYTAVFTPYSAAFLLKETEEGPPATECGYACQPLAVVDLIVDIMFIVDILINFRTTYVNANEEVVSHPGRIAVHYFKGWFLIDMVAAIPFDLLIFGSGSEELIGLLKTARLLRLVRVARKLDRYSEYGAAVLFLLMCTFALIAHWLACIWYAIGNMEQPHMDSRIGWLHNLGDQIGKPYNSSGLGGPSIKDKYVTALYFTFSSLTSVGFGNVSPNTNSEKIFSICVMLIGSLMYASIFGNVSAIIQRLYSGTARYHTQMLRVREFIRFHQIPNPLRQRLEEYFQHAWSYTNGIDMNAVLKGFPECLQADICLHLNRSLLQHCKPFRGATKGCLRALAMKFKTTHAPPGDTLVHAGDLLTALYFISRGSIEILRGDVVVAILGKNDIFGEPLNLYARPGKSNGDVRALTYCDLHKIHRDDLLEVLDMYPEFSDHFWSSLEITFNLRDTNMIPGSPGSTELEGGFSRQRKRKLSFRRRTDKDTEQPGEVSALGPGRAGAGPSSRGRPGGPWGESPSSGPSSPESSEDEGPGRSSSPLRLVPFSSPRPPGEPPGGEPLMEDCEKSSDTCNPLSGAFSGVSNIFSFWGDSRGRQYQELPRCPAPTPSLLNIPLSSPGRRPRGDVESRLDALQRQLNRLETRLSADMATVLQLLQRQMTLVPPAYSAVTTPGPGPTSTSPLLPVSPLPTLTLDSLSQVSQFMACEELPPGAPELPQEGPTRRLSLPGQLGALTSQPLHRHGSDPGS
# assayInfo: Inhibition of human ERG at 10 uM by patch clamp assay relative to control
measuredMetric: inhibition at 10 µM (%)
Kindly answer with a numeric value in %, unit omitted.

Query: Could you share which inhibition at 10 µM value was measured for "C[C@H]1[C@H](F)C[C@@H](C(=O)NCc2cc(-c3cnc(C(F)(F)F)nc3)ncc2F)N1S(=O)(=O)c1ccc(F)cc1" ?
Reply: 14.3

---

# assayInfo: Lipophilicity, log D of the compound at pH 7.4
# settings: buffer
Note to self: values exactly at 3 are true. So logD at or above 3 is true, below is false.

Take a look at these entries with their results.
- entrySmiles: "C[C@H]1[C@H](F)C[C@@H](C(=O)NCc2cc(-c3cnc(C(F)(F)F)nc3)ccn2)N1S(=O)(=O)c1ccc(F)cc1"
  discreteLabel: "true"
- entrySmiles: "C[C@H]1[C@H](F)C[C@@H](C(=O)NCc2cc(-c3cnc(C(F)(F)F)nc3)nc(C3CC3)n2)N1S(=O)(=O)c1ccc(F)cc1"
  discreteLabel: "true"
- entrySmiles: "C[C@H]1[C@H](F)C[C@@H](C(=O)NCc2c(F)cnc(-c3cnc(C(F)(F)F)nc3)c2F)N1S(=O)(=O)c1ccc(F)cc1"
  discreteLabel: "false"
- entrySmiles: "O=C(NCc1cc(-c2ccc(C(F)(F)F)nc2)ncn1)[C@@H]1CCCN1S(=O)(=O)c1ccc(F)cc1"
  discreteLabel: "false"
- entrySmiles: "C[C@H]1[C@H](F)C[C@@H](C(=O)NCc2cc(-c3cnc(C(F)(F)F)nc3)c(F)cn2)N1S(=O)(=O)c1ccc(F)cc1"
  discreteLabel: "false"
- entrySmiles: "C[C@H]1[C@H](F)C[C@@H](C(=O)NCc2cc(-c3ccc(C(F)(F)F)nc3)ncn2)N1S(=O)(=O)c1ccc(F)cc1"
  discreteLabel: "false"

Turning now to a further molecule:
Query: Does the reported logD for "O=C(NCc1cc(-c2ccc(C(F)(F)F)nc2)ncn1)[C@@H]1C[C@@H](F)CN1S(=O)(=O)c1ccc(F)cc1" fall at or above the 3 mark?
Reply: false

---

Entries annotated with measured logD
# assayInfo: Lipophilicity, log D of the compound at pH 7.4
# settings: buffer
Output spec: single numeric token, no unit.

Here is how some compounds turned out for logD.
- entrySmiles: "C[C@H]1[C@H](F)C[C@@H](C(=O)NCc2ccnc(-c3cnc(C(F)(F)F)nc3)c2)N1S(=O)(=O)c1ccc(F)cc1"
  readoutNumber: 3
- entrySmiles: "C[C@H]1CC[C@@H](C(=O)NCc2cc(-c3ccc(C(F)(F)F)nc3)ncn2)N1S(=O)(=O)c1ccc(F)cc1"
  readoutNumber: 2.9
- entrySmiles: "C[C@H]1[C@H](F)C[C@@H](C(=O)NCc2cc(-c3cnc(C(F)(F)F)nc3)c(C#N)cn2)N1S(=O)(=O)c1ccc(F)cc1"
  readoutNumber: 2.3
- entrySmiles: "O=C(NCc1cc(-c2ccc(C(F)(F)F)nc2)ncn1)[C@@H]1CCN1S(=O)(=O)c1ccc(F)cc1"
  readoutNumber: 2.4
- entrySmiles: "C[C@H]1[C@H](F)C[C@@H](C(=O)NCc2cc(-c3cnc(C(F)(F)F)nc3)c(Cl)cn2)N1S(=O)(=O)c1ccc(F)cc1"
  readoutNumber: 2.5
- entrySmiles: "C[C@H]1[C@H](F)C[C@@H](C(=O)NCc2cc(-c3cnc(C(F)(F)F)nc3)ncc2F)N1S(=O)(=O)c1ccc(F)cc1"
  readoutNumber: 2.6

Next compound, please.
Query: Could you share which logD value was measured for "O=C(NCc1cc(-c2ccc(C(F)(F)F)nc2)ncn1)[C@@H]1C[C@H](F)CN1S(=O)(=O)c1ccc(F)cc1" ?
Reply: 1.8

Source: ChEMBL document CHEMBL4043298
